- system.under.test: FGFR1 (UniProt P11362)
- Sequence (P11362 whole entry, looked up): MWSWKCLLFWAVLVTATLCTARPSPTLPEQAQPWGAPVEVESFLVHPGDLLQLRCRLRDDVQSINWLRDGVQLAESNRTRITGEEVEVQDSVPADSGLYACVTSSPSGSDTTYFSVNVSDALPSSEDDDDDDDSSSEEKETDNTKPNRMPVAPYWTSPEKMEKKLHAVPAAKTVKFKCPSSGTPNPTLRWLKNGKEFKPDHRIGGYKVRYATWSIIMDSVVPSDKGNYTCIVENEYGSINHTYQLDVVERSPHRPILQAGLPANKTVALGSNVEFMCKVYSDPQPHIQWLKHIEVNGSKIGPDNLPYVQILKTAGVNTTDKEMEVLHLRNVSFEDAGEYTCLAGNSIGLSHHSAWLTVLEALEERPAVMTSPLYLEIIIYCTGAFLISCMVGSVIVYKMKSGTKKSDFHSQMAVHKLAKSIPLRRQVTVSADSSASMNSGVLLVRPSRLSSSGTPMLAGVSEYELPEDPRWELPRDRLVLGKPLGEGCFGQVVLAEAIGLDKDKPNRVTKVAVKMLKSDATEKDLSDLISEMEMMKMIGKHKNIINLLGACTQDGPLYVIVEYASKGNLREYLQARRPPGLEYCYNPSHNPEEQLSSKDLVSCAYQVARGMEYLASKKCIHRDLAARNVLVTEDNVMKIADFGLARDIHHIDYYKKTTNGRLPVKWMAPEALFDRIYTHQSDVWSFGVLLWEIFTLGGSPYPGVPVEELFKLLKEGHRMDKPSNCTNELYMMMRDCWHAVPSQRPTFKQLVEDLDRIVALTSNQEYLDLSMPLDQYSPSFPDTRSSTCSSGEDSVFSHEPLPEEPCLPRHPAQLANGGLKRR
- measurement.description: phosphorylation enrichment, bacterial display (enrichment ratio); higher = better substrate or ligand; peptides without Tyr show the background;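 note: 11-residue human phosphosite peptides and single-mutation variants displayed on the E. coli surface, counted by deep sequencing, each peptide's frequency after selection divided by its frequency in the unselected input library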;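 note: frequency after pTyr selection over input frequency; kinase dosed for 20-30% of maximal phosphorylation in three min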
measurement.type: phosphorylation enrichment
Number only, no unit.

seq | system.under.test | measurement.type | readout.value
LLKANYELLNA [POLR3A_Y714_K713N] | FGFR1 (UniProt P11362) | phosphorylation enrichment | 0.457

Specify measured phosphorylation enrichment for SVVVRYEPPEV [TP53_Y220_P219R] .
0.409

Specify measured phosphorylation enrichment for KTKIGYSPLHQ [ANK1_Y735_L733I] .
0.422

Specify measured phosphorylation enrichment for RGVAHYILQTF [SLC39A4_Y359_T357A] .
0.456

Specify measured phosphorylation enrichment for AGTILYHAHLG [ASS1_Y291_D296G] .
0.517

Specify measured phosphorylation enrichment for GLNKDYRMVVN [HINT1_Y94_G93D] .
0.51

Specify measured phosphorylation enrichment for SARFHYLMAEK [LDHB_Y173_R172H] .
0.445

* * *

- System: Fer (mouse)
- measurement.description: phosphorylation enrichment, bacterial display (enrichment ratio); higher = better substrate or ligand; peptides without Tyr show the background
measurement.type: phosphorylation enrichment
Number only, no unit.

Examples with answers:
seq | phosphorylation enrichment
SEASYYKSLNL [NGEF_Y289] | 0.497
NTGFFYDLFGG [PTPN11_Y63_D61Y_YF] | 0.77
SNNYIYTTLGV [FAM83B_Y639_K640T] | 6.62
ITSLLYHVVGW [GBA_Y412_N409S] | 2.94
EFNINYNNEPP [THG1L_Y228_L232P] | 0.6
ADDSFYTARSA [ZAP70_Y493_YF] | 0.451

Specify measured phosphorylation enrichment for TFRPPYFHRDC [HGD_Y333_N337D_YF] .
0.422

Specify measured phosphorylation enrichment for EGVPLYESATT [DCC_Y809] .
7.75

Specify measured phosphorylation enrichment for REVVNYVQKRS [RMI1_Y450_N455S] .
0.525

Specify measured phosphorylation enrichment for EWQQIYTFDSG [JUP_Y20_T19I_YF] .
4.03

* * *

- system.under.test: EPHB1 (UniProt P54762)
- Sequence (P54762 whole entry, looked up): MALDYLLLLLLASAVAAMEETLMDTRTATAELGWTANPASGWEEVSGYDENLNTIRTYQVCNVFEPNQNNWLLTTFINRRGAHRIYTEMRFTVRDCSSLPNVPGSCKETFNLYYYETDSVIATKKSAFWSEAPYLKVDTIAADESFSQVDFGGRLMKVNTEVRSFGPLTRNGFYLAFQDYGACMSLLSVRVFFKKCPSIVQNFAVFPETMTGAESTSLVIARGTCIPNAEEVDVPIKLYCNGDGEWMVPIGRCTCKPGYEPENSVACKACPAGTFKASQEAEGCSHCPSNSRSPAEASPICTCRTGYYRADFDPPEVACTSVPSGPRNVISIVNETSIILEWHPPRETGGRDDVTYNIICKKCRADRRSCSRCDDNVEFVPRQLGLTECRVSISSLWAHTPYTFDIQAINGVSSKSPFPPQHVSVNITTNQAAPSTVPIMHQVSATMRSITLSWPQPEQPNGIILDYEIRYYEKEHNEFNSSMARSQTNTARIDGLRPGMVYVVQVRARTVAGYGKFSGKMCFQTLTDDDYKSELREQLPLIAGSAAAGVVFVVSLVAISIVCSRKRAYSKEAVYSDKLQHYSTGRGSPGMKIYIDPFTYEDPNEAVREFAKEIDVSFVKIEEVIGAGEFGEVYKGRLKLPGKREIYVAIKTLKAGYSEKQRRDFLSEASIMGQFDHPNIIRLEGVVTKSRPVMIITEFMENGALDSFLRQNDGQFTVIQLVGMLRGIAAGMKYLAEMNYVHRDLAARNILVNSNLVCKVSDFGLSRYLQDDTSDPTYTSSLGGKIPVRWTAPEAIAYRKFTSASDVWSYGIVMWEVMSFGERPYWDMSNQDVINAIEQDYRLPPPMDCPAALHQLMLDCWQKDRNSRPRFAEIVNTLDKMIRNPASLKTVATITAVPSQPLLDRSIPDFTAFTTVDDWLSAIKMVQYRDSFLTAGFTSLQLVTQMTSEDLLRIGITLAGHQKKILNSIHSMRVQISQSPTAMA
- measurement.description: phosphorylation enrichment, bacterial display (enrichment ratio); higher = better substrate or ligand; peptides without Tyr show the background
measurement.type: phosphorylation enrichment

Examples with answers:
seq | phosphorylation enrichment
ADDSFYTARSA [ZAP70_Y493_YF] | 0.597
QISRDYGVLLE [PRDX3_Y172] | 0.617

Consider the record given below.
Specify measured phosphorylation enrichment for TKQLTYEEQFL [PIK3C3_Y310_D314Y_YF] .
0.611

* * *

- system.under.test: EPHB1 (UniProt P54762)
- measurement.description: phosphorylation enrichment, bacterial display (enrichment ratio); higher = better substrate or ligand; peptides without Tyr show the background
Consider the following sequences and their measured phosphorylation enrichment readings.
Number only, no unit.

Examples with answers:
seq | readout.value
CQKRKYIEIDS [SDAD1_Y580_S575C] | 0.513
DVQNEYDSNHC [ZFYVE16_Y36_A35E] | 0.508
IIWDSYTTNKV [GNB1_Y85] | 0.498

Specify measured phosphorylation enrichment for KIFPEYLSNWT [AIFM1_Y347_L344F] .
0.513

Specify measured phosphorylation enrichment for AHLLQYNHQVK [LGALS3_Y221_R224Q] .
0.503

All values here come from the supplement of paper PMC10065799.
